Experiment: physchem
Description: Ionization constant, pKa of the compound by UV spectrophotometric analysis

- smi: "NCCCCS(=O)(=O)Nc1ccc(Nc2c3ccccc3nc3ccccc23)cc1"
  pKa: 6.91
- smi: "NCCCS(=O)(=O)Nc1ccc(Nc2c3ccccc3nc3ccccc23)cc1"
  pKa: 6.89
- smi: "C[n+]1c2ccccc2c(Nc2ccc(NS(=O)(=O)CCCCN)cc2)c2ccccc21"
  pKa: 6.72
- smi: "NCCS(=O)(=O)Nc1ccc(Nc2c3ccccc3nc3cc([N+](=O)[O-])ccc23)cc1"
  pKa: 5.25
- smi: "Cc1cccc2c(Nc3ccc(NS(=O)(=O)CCCCNC(=N)N)cc3)c3cccc(C)c3nc12"
  pKa: 6.41

* * *

This section presents molecules with their documented pKa values.
Experiment: physchem

- molecule: "Cl.NCCCCCCS(=O)(=O)Nc1ccc(Nc2c3ccccc3nc3ccccc23)cc1"
  pKa: 6.92
- molecule: "Nc1c2ccccc2nc2ccccc12 [AMINACRINE]"
  pKa: 9.6
- molecule: "N=C(N)NCCS(=O)(=O)Nc1ccc(Nc2c3ccccc3nc3cc([N+](=O)[O-])ccc23)cc1"
  pKa: 5.26
- molecule: "Cl.NCCS(=O)(=O)Nc1ccc(Nc2c3ccccc3nc3ccccc23)cc1"
  pKa: 6.62
- molecule: "NCCC(=O)NCCS(=O)(=O)Nc1ccc(Nc2c3ccccc3nc3ccccc23)cc1"
  pKa: 6.91
- molecule: "N=C(N)NCCCCCCS(=O)(=O)Nc1ccc(Nc2c3ccccc3nc3cc([N+](=O)[O-])ccc23)cc1"
  pKa: 5.35
- molecule: "N=C(N)NCCCCS(=O)(=O)Nc1ccc(Nc2c3ccccc3nc3cc([N+](=O)[O-])ccc23)cc1"
  pKa: 5.36
- molecule: "Cl.NCCCS(=O)(=O)Nc1ccc(Nc2c3ccccc3nc3cc([N+](=O)[O-])ccc23)cc1"
  pKa: 5.33
- molecule: "C[n+]1c2ccccc2c(Nc2ccc(NS(=O)(=O)CCNC(=O)CCN)cc2)c2ccccc21"
  pKa: 6.7

* * *

Test: in vivo
Settings: C3H X DBA2 F1, mouse, ip
Description: Toxicity in ip dosed C3H X DBA2 F1 mouse allografted with mouse L1210 cells through ip
This section presents molecules with their documented MTD values.
measured_parameter: MTD

- smi: "Cl.NCCCCCCS(=O)(=O)Nc1ccc(Nc2c3ccccc3nc3ccccc23)cc1"
  measured_parameter: "MTD"
  result: "65 mg/kg/day"
- smi: "C[n+]1c2ccccc2c(Nc2ccc(NS(=O)(=O)CCCCNC(=N)N)cc2)c2ccccc21.[Br-]"
  measured_parameter: "MTD"
  result: "150 mg/kg/day"
- smi: "Cl.NCCCCCS(=O)(=O)Nc1ccc(Nc2c3ccccc3nc3ccccc23)cc1"
  measured_parameter: "MTD"
  result: "60 mg/kg/day"
- smi: "Cl.NCCS(=O)(=O)Nc1ccc(Nc2c3ccccc3nc3ccccc23)cc1"
  measured_parameter: "MTD"
  result: "35 mg/kg/day"
- smi: "Cl.NCCCCCCCCS(=O)(=O)Nc1ccc(Nc2c3ccccc3nc3cc([N+](=O)[O-])ccc23)cc1"
  measured_parameter: "MTD"
  result: "30 mg/kg/day"
- smi: "Cl.N=C(N)NCCCCS(=O)(=O)Nc1ccc(Nc2c3ccccc3nc3cc(Cl)ccc23)cc1"
  measured_parameter: "MTD"
  result: "150 mg/kg/day"
- smi: "Cl.N=C(N)NCCCCS(=O)(=O)Nc1ccc(Nc2c3ccccc3nc3ccccc23)cc1"
  measured_parameter: "MTD"
  result: "75 mg/kg/day"
- smi: "Cc1cccc2c(Nc3ccc(NS(=O)(=O)CCCCN)cc3)c3ccc([N+](=O)[O-])cc3nc12.Cl"
  measured_parameter: "MTD"
  result: "200 mg/kg/day"

* * *

Experiment: in vivo
Conditions: C3H X DBA2 F1, mouse, ip
Description: Toxicity in ip dosed C3H X DBA2 F1 mouse allografted with mouse L1210 cells through sc

- smi: "CN(C)CCCCS(=O)(=O)Nc1ccc(Nc2c3ccccc3nc3cc([N+](=O)[O-])ccc23)cc1.Cl"
  MTD [mg/kg/day]: 10
- smi: "Cl.NCCCS(=O)(=O)Nc1ccc(Nc2c3ccccc3nc3cc([N+](=O)[O-])ccc23)cc1"
  MTD [mg/kg/day]: 20
- smi: "Cl.NCCCCCS(=O)(=O)Nc1ccc(Nc2c3ccccc3nc3cc([N+](=O)[O-])ccc23)cc1"
  MTD [mg/kg/day]: 44
- smi: "Cl.NCCCCCCS(=O)(=O)Nc1ccc(Nc2c3ccccc3nc3cc([N+](=O)[O-])ccc23)cc1"
  MTD [mg/kg/day]: 2

* * *

This section presents molecules with their documented pKa values.
Assay: physchem
measured_parameter: pKa

- smi: "Cl.NCCCCCS(=O)(=O)Nc1ccc(Nc2c3ccccc3nc3ccccc23)cc1"
  readout_number: 6.92
- smi: "CN(C)CCCCS(=O)(=O)Nc1ccc(Nc2c3ccccc3nc3cc([N+](=O)[O-])ccc23)cc1.Cl"
  readout_number: 5.36
- smi: "Cl.N=C(N)NCCCCS(=O)(=O)Nc1ccc(Nc2c3ccccc3nc3ccccc23)cc1"
  readout_number: 6.91
- smi: "N=C(N)NCCCCCS(=O)(=O)Nc1ccc(Nc2c3ccccc3nc3cc([N+](=O)[O-])ccc23)cc1"
  readout_number: 5.36
- smi: "CC(=O)Nc1ccc2c(Nc3ccc(NS(=O)(=O)CCCCN)cc3)c3ccccc3nc2c1"
  readout_number: 7.16
- smi: "N=C(N)NCCCS(=O)(=O)Nc1ccc(Nc2c3ccc([N+](=O)[O-])cc3nc3cc([N+](=O)[O-])ccc23)cc1"
  readout_number: 3.68
- smi: "CC(=O)Nc1ccc2c(Nc3ccc(NS(=O)(=O)CCNC(=N)N)cc3)c3ccc([N+](=O)[O-])cc3nc2c1"
  readout_number: 5.55
- smi: "Cl.N=C(N)NCCCCS(=O)(=O)Nc1ccc(Nc2c3ccccc3nc3cc(Cl)ccc23)cc1"
  readout_number: 6.33

* * *

Experiment: physchem
This section presents compounds with their documented pKa values.

- smi: "Cl.NCCCCCS(=O)(=O)Nc1ccc(Nc2c3ccccc3nc3cc([N+](=O)[O-])ccc23)cc1"
  pKa: 5.36
- smi: "NCC(=O)NCCS(=O)(=O)Nc1ccc(Nc2c3ccccc3nc3ccccc23)cc1"
  pKa: 6.9
- smi: "Cc1ccc2c(Nc3ccc(NS(=O)(=O)CCCCN)cc3)c3ccc([N+](=O)[O-])cc3nc2c1C"
  pKa: 5.52
- smi: "C[n+]1c2ccccc2c(Nc2ccc(NS(C)(=O)=O)cc2)c2ccc(N)cc21"
  pKa: 10.1
- smi: "CS(=O)(=O)Nc1ccc(Nc2c3ccccc3nc3ccccc23)cc1"
  pKa: 7.19
- smi: "Cc1cccc2c(Nc3ccc(NS(=O)(=O)CCCCN)cc3)c3ccc([N+](=O)[O-])cc3nc12.Cl"
  pKa: 5.44
- smi: "COc1cc(NS(=O)(=O)CCCCN)ccc1Nc1c2ccccc2nc2cc([N+](=O)[O-])ccc12"
  pKa: 5.58
- smi: "Cl.NCCCCCCCCS(=O)(=O)Nc1ccc(Nc2c3ccccc3nc3cc([N+](=O)[O-])ccc23)cc1"
  pKa: 5.35
- smi: "C[n+]1c2ccccc2c(Nc2ccc(NS(=O)(=O)CCCCNC(=N)N)cc2)c2ccccc21.[Br-]"
  pKa: 6.69
- smi: "NCCCCCCCS(=O)(=O)Nc1ccc(Nc2c3ccccc3nc3cc([N+](=O)[O-])ccc23)cc1"
  pKa: 5.36
- smi: "Cl.NCCCCCCS(=O)(=O)Nc1ccc(Nc2c3ccccc3nc3cc([N+](=O)[O-])ccc23)cc1"
  pKa: 5.34
- smi: "NCCC(=O)NCCS(=O)(=O)Nc1ccc(Nc2c3ccccc3nc3cc([N+](=O)[O-])ccc23)cc1"
  pKa: 5.35
- smi: "NCC(=O)NCCS(=O)(=O)Nc1ccc(Nc2c3ccccc3nc3cc([N+](=O)[O-])ccc23)cc1"
  pKa: 5.34
- smi: "N=C(N)NCCCS(=O)(=O)Nc1ccc(Nc2c3ccccc3nc3cc([N+](=O)[O-])ccc23)cc1"
  pKa: 5.34
- smi: "NCCCCS(=O)(=O)Nc1ccc(Nc2c3ccccc3nc3cc([N+](=O)[O-])ccc23)cc1"
  pKa: 5.34
- smi: "CC(=O)Nc1ccc2c(Nc3ccc(NS(=O)(=O)CCCNC(=N)N)cc3)c3ccc([N+](=O)[O-])cc3nc2c1"
  pKa: 5.58

All values here come from ChEMBL document CHEMBL3272170.
